- PROCEDURE TEXT: Biodistribution in HEK-ACE2/HEK-ACE xenografted mice
- Type: in vivo, mouse
- APPLIED CONDITIONS: female, CD1/nude, mouse, blood, iv, 0.5 nmol, total radioactivity, 3 h after i.v. injection, decay-corrected, n = 3; read-out: Biodistribution: blood
Residues, ends and D or L forms follow the SMILES beside them. *: point of attachment. DOTA = O=C(O)CN1CCN(CC(=O)O)CCN(CC(=O)*)CCN(CC(=O)O)CC1; Ahx = NCCCCCC(=O)O
READOUT KIND: tissue uptake at 3 h (%ID/g)

MOLECULE	NUMERIC RESULT
CC[C@H](C)[C@H](NC(=O)[C@H](CCC(N)=O)NC(=O)[C@@H]1CCCN1C(=O)[C@H](CCCNC(=N)N)NC(=O)[C@@H]1CCCN1C(=O)[C@H](Cc1c[nH]c2ccccc12)NC(=O)[C@H](CCC(=O)O)NC(=O)CCCCCNC(=O)CCCCCNC(=O)CN1CCN(CC(=O)O)CCN(CC(=O)O)CCN(CC(=O)O)CC1)C(=O)N1CCC[C@H]1C(=O)N1CCC[C@H]1C(=O)O [[^67Ga]Ga-DOTA-BPP9a, metal not drawn] ({DOTA-Ahx-Ahx}-EWPRPQIPP-OH)	0.05
